Recorded normalized growth values for a group of molecules are listed next.
assay-comment: chemical genetic growth profiling, strain panel (AID 1159580);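 further: tested at 20 µM; growth read once vehicle control cultures reached saturation at 30 °C; 1 = growth at the plate median or of vehicle wells; lower values mean less growth of the strain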
assay-context: S. cerevisiae deletion strains, growth OD, locus YJL187C, strain SWE1 (second series), active compounds read low
About 2,000 (36%) of roughly 5,500 compounds were called active. About 18% were inconclusive and are not listed. Some of the results follow.

{"columns": ["molecule", "normalized growth"],
 "data": [
  ["C[C@]12CCC(=O)C=C1CCc1ccc(O)cc12", 1],
  ["CC[C@@]1(O)C(=O)OCc2c1cc1n(c2=O)Cc2cc3cc(O)ccc3nc2-1", 1.02],
  ["Cc1ccccc1N1C(=O)c2cc(S(N)(=O)=O)c(Cl)cc2NC1C (stereo not given)", 1],
  ["CC(=O)[C@@]1(O)CCC2C3C=C(Cl)C4=CC(=O)[C@@H]5CC5[C@]4(C)C3CC[C@@]21C (stereo not given in full)", 1.02],
  ["CC(=O)OCC(=O)[C@@]1(O)CCC2C3C[C@H](C)C4=CC(=O)C=CC4(C)C3[C@@H](O)CC21C (stereo not given in full)", 1.02],
  ["NC(=O)c1ccc([N+](=O)[O-])cc1Cl", 0.972],
  ["O=C(O)c1ccccc1O", 1],
  ["CCCc1nn(C)c2c(=O)[nH]c(-c3cc(S(=O)(=O)N4CCN(C)CC4)ccc3OCC)nc12", 1.02],
  ["COc1cc(C)c2c(=O)c3c(O)cc(OC)cc3oc2c1", 1.02],
  ["COP(N)(=O)SC (stereo not given)", 1.01],
  ["C/C=C(\\C)C(=O)O[C@@H]1c2c(ccc3ccc(=O)oc23)OC(C)(C)[C@@H]1OC(C)=O", 1],
  ["NCCCN", 1.01],
  ["COC(=O)C(N)CS (stereo not given)", 0.972],
  ["Cc1c(C(N)=O)cc([N+](=O)[O-])cc1[N+](=O)[O-]", 0.999],
  ["Cc1ccc(C(C)C)c(O)c1C(=O)O", 1.01]
]}

---

assay-comment: chemical genetic growth profiling, strain panel (AID 1159580);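 further: tested at 20 µM; growth read once vehicle control cultures reached saturation at 30 °C; 1 = growth at the plate median or of vehicle wells; lower values mean less growth of the strain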
assay-context: S. cerevisiae deletion strains, growth OD, locus YDR137W, strain rgp1
The campaign covered roughly 5,500 compounds. About 2,000 (36%) were called active. About 18% were inconclusive and are not listed. No stated cut-off is given here; in the data, active means normalized growth mostly below about 0.91 (no sharp cut-off); inconclusive means no clear call, values can overlap the other calls; inactive means mostly above about 0.92. The list shows a part of the results.
Labels: 1.0 for active, 0.0 for inactive

{"columns": ["molecule", "class"],
 "data": [
  ["O=c1c(O)cc([C@H]2Oc3cc(O)cc(O)c3C[C@H]2O)cc2c([C@H]3Oc4cc(O)cc(O)c4C[C@H]3O)cc(O)c(O)c12", 0.0],
  ["COc1ccc(-c2cc(=O)c3c(O)c(OC)c(OC)c(OC)c3o2)cc1OC", 1.0],
  ["C/C=C(\\C)C(=O)O[C@@H]1c2c(ccc3ccc(=O)oc23)OC(C)(C)[C@@H]1OC(C)=O", 1.0],
  ["O=C(/C=C(\\O)c1ccccc1)c1ccccc1O", 1.0],
  ["COC(=O)NC(=S)Nc1ccccc1NC(=S)NC(=O)OC", 0.0],
  ["COc1cc(C(=O)N2CCOCC2)cc(OC)c1OC", 0.0],
  ["Oc1ccc([C@H]2Oc3cc(O)cc(O)c3C[C@H]2O)cc1", 0.0],
  ["CC1(C)C(O)CC(=O)C2(C)C1CC(O)C1(C)C2CCC2(C)C(c3ccoc3)OC(=O)C3OC321 (stereo unspecified)", 0.0],
  ["O=C(Oc1ccccc1C(=O)O)c1ccccc1O", 0.0],
  ["C[N+]1(C)C[C@H](O)[C@H](C(=O)[O-])C1", 0.0],
  ["CC(=O)Oc1ccccc1C(=O)Oc1ccccc1C(=O)O", 0.0],
  ["C[C@H]1O[C@@H](O[C@H]2[C@@H](O)C[C@H](O[C@H]3[C@@H](O)C[C@H](O[C@H]4CC[C@]5(C)C6C[C@@H](O)[C@]7(C)[C@@H](C8=CC(=O)OC8)CC[C@]7(O)C6CC[C@@H]5C4)O[C@@H]3C)O[C@@H]2C)C[C@H](O)[C@@H]1O (stereo partly specified)", 0.0],
  ["CC(=O)OCC(=O)[C@@]1(O)CCC2C3C[C@H](C)C4=CC(=O)C=CC4(C)C3[C@@H](O)CC21C (stereo partly specified)", 0.0],
  ["O=C(O)c1ccccc1O", 0.0],
  ["COC(=O)CC1C(C)(C)C(OC(C)=O)[C@@H]2[C@@H](OC(C)=O)[C@]34O[C@@]2(O)[C@]1(C)C3CC[C@]1(C)C4=CC(=O)O[C@H]1c1ccoc1 (stereo partly specified)", 0.0],
  ["NC(=O)c1ccc([N+](=O)[O-])cc1Cl", 0.0],
  ["CO[C@@H]1[C@@H](OC(N)=O)[C@@H](O)[C@H](Oc2ccc3c(O)c(NC(=O)c4ccc(O)c(CC=C(C)C)c4)c(=O)oc3c2C)OC1(C)C", 0.0],
  ["CC1(C)Oc2ccc3ccc(=O)oc3c2CC1O (stereo unspecified)", 0.0],
  ["COc1ccc(-c2cc(=O)c3c(OC)c(OC)c(OC)c(OC)c3o2)cc1OC", 0.0],
  ["COC1C(O)C(O[C@H]2CC[C@]3(C=O)C4C(CC[C@]3(O)C2)[C@@]2(O)CC[C@H](C3=CC(=O)OC3)[C@@]2(C)C[C@H]4OC(C)=O)OC(C)C1OC(C)=O (stereo partly specified)", 0.0],
  ["CC1(C)O[C@@H]2CC3C4C[C@H](F)C5=CC(=O)CC[C@]5(C)C4[C@@H](O)C[C@]3(C)[C@]2(C(=O)CO)O1 (stereo partly specified)", 0.0]
]}
